system: Rattus norvegicus; test: Ulcerogenic activity in albino rat carrageenan-induced paw edema model assessed as ulcer index at 0.28 mmol/kg, po (reference value: 0.60 +/- 0.05); assay type: toxicity, organism-based; conditions: in vivo
measurement.name: UI
Note: the reply should be a number with no unit written.

                            molecule_smiles  test_value
0  C=CCn1c(SCC(=O)Nc2ccc(C(C)=O)cc2)nnc1-c1ccc(OC)cc1        8.66
1  C=CCn1c(SCC(=O)Nc2ccc(/C(C)=N/O)cc2)nnc1-c1ccccc1        0.64
2  CC(=O)c1ccc(NC(=O)CSc2nnc(-c3ccccc3)n2-c2ccccc2)cc1        3.38
3  C=CCn1c(SCC(=O)Nc2ccc(/C(C)=N/O)cc2)nnc1-c1cc(OC)c(OC)c(OC)c1        0.75

Now for a further molecule.
Asked: Write down measured UI (Rattus norvegicus) for this molecule. CCn1c(SCC(=O)Nc2ccc(C(C)=O)cc2)nnc1-c1ccc(OC)cc1
Given back: 10.52

----------
assay: Induction of nitric oxide release in phosphate buffer at 10^-4 M at pH 7.4 after 1 hr by Griess colorimetric method in presence of N-acetylcysteine; format: physicochemical; details: pH 7.4, 1 h, 100 µM
measurement.name: Activity (mol/mol)
Numeric answer only, unit mol/mol assumed.

                            molecule_smiles  test_value
0  C=CCn1c(SCC(=O)Nc2ccc(/C(C)=N/O)cc2)nnc1-c1ccccc1        0.15
1  C=CCn1c(SCC(=O)Nc2ccc(/C(C)=N/O)cc2)nnc1-c1ccc(OC)c(OC)c1        0.13
2  COc1ccc(-c2nnc(SCC(=O)Nc3ccc(/C(C)=N/O)cc3)n2-c2ccccc2)cc1OC        0.15
3  C=CCn1c(SCC(=O)Nc2ccc(/C(C)=N/O)cc2)nnc1-c1cc(OC)c(OC)c(OC)c1        0.11
4  CCn1c(SCC(=O)Nc2ccc(/C(C)=N/O)cc2)nnc1-c1cc(OC)c(OC)c(OC)c1        0.12

Asked: Answer with the recorded Activity of C/C(=N\O)c1ccc(NC(=O)CSc2nnc(-c3ccccc3)n2-c2ccccc2)cc1 only.
Given back: 0.11

----------
assay: Induction of nitric oxide release in phosphate buffer at 10^-4 M at pH 7.4 after 2 hrs by Griess colorimetric method in presence of N-acetylcysteine; type: physicochemical; conditions: pH 7.4, 2 h, 100 µM
Listed compounds paired with reported Activity
Numeric answer only, unit mol/mol assumed.

>>> df
                            molecule_smiles  test_value
0  CCn1c(SCC(=O)Nc2ccc(/C(C)=N/O)cc2)nnc1-c1ccccc1        0.17

Asked: Answer with the recorded Activity of C=CCn1c(SCC(=O)Nc2ccc(/C(C)=N/O)cc2)nnc1-c1ccc(OC)cc1 only.
Given back: 0.17

Asked: Answer with the recorded Activity of CCn1c(SCC(=O)Nc2ccc(/C(C)=N/O)cc2)nnc1-c1ccc(OC)c(OC)c1 only.
Given back: 0.19

Asked: Answer with the recorded Activity of C/C(=N\O)c1ccc(NC(=O)CSc2nnc(-c3ccccc3)n2-c2ccccc2)cc1 only.
Given back: 0.15

Asked: Answer with the recorded Activity of CCn1c(SCC(=O)Nc2ccc(/C(C)=N/O)cc2)nnc1-c1ccc(OC)cc1 only.
Given back: 0.2

Asked: Answer with the recorded Activity of C=CCn1c(SCC(=O)Nc2ccc(/C(C)=N/O)cc2)nnc1-c1ccc(OC)c(OC)c1 only.
Given back: 0.16

Asked: Answer with the recorded Activity of COc1ccc(-c2nnc(SCC(=O)Nc3ccc(/C(C)=N/O)cc3)n2-c2ccccc2)cc1OC only.
Given back: 0.2

----------
experiment: Induction of nitric oxide release in phosphate buffer at 10^-4 M at pH 7.4 after 6 hrs by Griess colorimetric method in presence of N-acetylcysteine; assay type: physicochemical; conditions: pH 7.4, 6 h, 100 µM
measurement.name: Activity (mol/mol)
Numeric answer only, unit mol/mol assumed.

Examples with answers:
In [3]: df
Out[3]:
                            molecule_smiles  measurement_name  units_of_measure  test_value
0  C/C(=N\O)c1ccc(NC(=O)CSc2nnc(-c3ccccc3)n2-c2ccccc2)cc1          Activity           mol/mol        0.16
1  C=CCn1c(SCC(=O)Nc2ccc(/C(C)=N/O)cc2)nnc1-c1ccc(OC)c(OC)c1          Activity           mol/mol        0.26
2  CCn1c(SCC(=O)Nc2ccc(/C(C)=N/O)cc2)nnc1-c1ccc(OC)c(OC)c1          Activity           mol/mol        0.32
3  COc1ccc(-c2nnc(SCC(=O)Nc3ccc(/C(C)=N/O)cc3)n2-c2ccccc2)cc1          Activity           mol/mol        0.23
4  CCn1c(SCC(=O)Nc2ccc(/C(C)=N/O)cc2)nnc1-c1ccccc1          Activity           mol/mol        0.12

Asked: Answer with the recorded Activity of C=CCn1c(SCC(=O)Nc2ccc(/C(C)=N/O)cc2)nnc1-c1cc(OC)c(OC)c(OC)c1 only.
Given back: 0.16

Asked: Answer with the recorded Activity of COc1ccc(-c2nnc(SCC(=O)Nc3ccc(/C(C)=N/O)cc3)n2-c2ccccc2)cc1OC only.
Given back: 0.31

Asked: Answer with the recorded Activity of C=CCn1c(SCC(=O)Nc2ccc(/C(C)=N/O)cc2)nnc1-c1ccc(OC)cc1 only.
Given back: 0.16

Asked: Answer with the recorded Activity of COc1cc(-c2nnc(SCC(=O)Nc3ccc(/C(C)=N/O)cc3)n2-c2ccccc2)cc(OC)c1OC only.
Given back: 0.14

Asked: Answer with the recorded Activity of CCn1c(SCC(=O)Nc2ccc(/C(C)=N/O)cc2)nnc1-c1ccc(OC)cc1 only.
Given back: 0.23

Asked: Answer with the recorded Activity of C=CCn1c(SCC(=O)Nc2ccc(/C(C)=N/O)cc2)nnc1-c1ccccc1 only.
Given back: 0.15

Asked: Answer with the recorded Activity of CCn1c(SCC(=O)Nc2ccc(/C(C)=N/O)cc2)nnc1-c1cc(OC)c(OC)c(OC)c1 only.
Given back: 0.14

----------
assay: Induction of nitric oxide release in phosphate buffer at 10^-4 M at pH 7.4 after 1 hr by Griess colorimetric method in presence of N-acetylcysteine; assay type: physicochemical; conditions: pH 7.4, 1 h, 100 µM
measurement.name: Activity (mol/mol)
Numeric answer only, unit mol/mol assumed.

Examples with answers:
In [3]: df
Out[3]:
                            molecule_smiles  measurement_name  test_value
0  COc1cc(-c2nnc(SCC(=O)Nc3ccc(/C(C)=N/O)cc3)n2-c2ccccc2)cc(OC)c1OC          Activity        0.11
1  CCn1c(SCC(=O)Nc2ccc(/C(C)=N/O)cc2)nnc1-c1ccc(OC)c(OC)c1          Activity        0.15

Asked: Answer with the recorded Activity of CCn1c(SCC(=O)Nc2ccc(/C(C)=N/O)cc2)nnc1-c1ccccc1 only.
Given back: 0.11

----------
experiment: Induction of nitric oxide release in HCl buffer at 10^-4 M at pH 1 after 1 hr by Griess colorimetric method in presence of N-acetylcysteine; assay type: physicochemical; conditions: pH 1, 1 h, 100 µM
measurement.name: Activity

                            molecule_smiles  test_value
0  C=CCn1c(SCC(=O)Nc2ccc(/C(C)=N/O)cc2)nnc1-c1ccccc1  Not Active
1  CCn1c(SCC(=O)Nc2ccc(/C(C)=N/O)cc2)nnc1-c1cc(OC)c(OC)c(OC)c1  Not Active
2  C/C(=N\O)c1ccc(NC(=O)CSc2nnc(-c3ccccc3)n2-c2ccccc2)cc1  Not Active

----------
assay: Induction of nitric oxide release in phosphate buffer at 10^-4 M at pH 7.4 after 5 hrs by Griess colorimetric method in presence of N-acetylcysteine; assay type: physicochemical; conditions: pH 7.4, 5 h, 100 µM
Listed compounds paired with reported Activity
Numeric answer only, unit mol/mol assumed.

Examples with answers:
In [3]: df
Out[3]:
                            molecule_smiles  test_value
0  C/C(=N\O)c1ccc(NC(=O)CSc2nnc(-c3ccccc3)n2-c2ccccc2)cc1        0.14
1  CCn1c(SCC(=O)Nc2ccc(/C(C)=N/O)cc2)nnc1-c1ccccc1        0.14
2  C=CCn1c(SCC(=O)Nc2ccc(/C(C)=N/O)cc2)nnc1-c1ccccc1        0.16

Asked: Answer with the recorded Activity of C=CCn1c(SCC(=O)Nc2ccc(/C(C)=N/O)cc2)nnc1-c1cc(OC)c(OC)c(OC)c1 only.
Given back: 0.18

Asked: Answer with the recorded Activity of CCn1c(SCC(=O)Nc2ccc(/C(C)=N/O)cc2)nnc1-c1cc(OC)c(OC)c(OC)c1 only.
Given back: 0.15

Measured values drawn from ChEMBL document CHEMBL3102806 for this set.
